These data points were gathered from ChEMBL document CHEMBL4177529.

Measured MIC by item
# System: Enterococcus faecalis
# protocolDetails: microbe, parasite or virus in culture
# Type: functional
# runConditions: ATCC 51299
# Description: Antibacterial activity against vancomycin-susceptible Enterococcus faecalis ATCC 51299 by XTT assay
valueKind: MIC (µg/mL)

Cc1onc(-c2ccccc2)c1C(=O)N[C@@H]1C(=O)N2[C@@H]1SC(C)(C)[C@@H]2C(=O)[O-].[Na+] | 50
CCCCCCC(C)/C=C(\C)C(=O)O[C@@]1(C)C(=O)C2=COC(c3c(C)cccc3O)=CC2=C(Cl)C1=O (stereo partly drawn) | 6.25
Cc1cccc(O)c1C1=CC2=C(Cl)C(=O)[C@@](C)(O)C(=O)C2=CO1 | 50

====

# System: Escherichia coli
# protocolDetails: Antibacterial activity against Escherichia coli ATCC 25922 by XTT assay
# Format: functional
valueKind: MIC

Cc1cccc(O)c1C1=CC2=C(Cl)C(=O)[C@@](C)(O)C(=O)C2=CO1 | > 50 µg/mL
CCCCCCC(C)/C=C(\C)C(=O)O[C@@]1(C)C(=O)C=C2C=C(c3c(C)cccc3O)OC=C2C1=O (stereo partly drawn) | > 50 µg/mL
CCCCCCC(C)/C=C(\C)C(=O)O[C@@]1(C)C(=O)C2=COC(C3=C(C)CC(O)CC3=O)=CC2=C(Cl)C1=O (stereo partly drawn) | > 50 µg/mL
Cc1onc(-c2ccccc2)c1C(=O)N[C@@H]1C(=O)N2[C@@H]1SC(C)(C)[C@@H]2C(=O)[O-].[Na+] | > 100 µg/mL
CCCCCCC(C)/C=C(\C)C(=O)O[C@@]1(C)C(=O)C2=COC(c3c(C)cccc3O)=CC2=C(Cl)C1=O (stereo partly drawn) | > 50 µg/mL
CCCCCCC(C)/C=C(\C)C(=O)O[C@@]1(C)C(=O)C=C2C=C(C3=C(C)C[C@@H](O)CC3=O)OC=C2C1=O (stereo partly drawn) | > 50 µg/mL
CN[C@H](CC(C)C)C(=O)N[C@H]1C(=O)N[C@@H](CC(N)=O)C(=O)N[C@H]2C(=O)N[C@H]3C(=O)N[C@H](C(=O)N[C@H](C(=O)O)c4cc(O)cc(O)c4-c4cc3ccc4O)[C@H](O)c3ccc(c(Cl)c3)Oc3cc2cc(c3O[C@@H]2O[C@H](CO)[C@@H](O)[C@H](O)[C@H]2O[C@H]2C[C@](C)(N)[C@H](O)[C@H](C)O2)Oc2ccc(cc2Cl)[C@H]1O.Cl [VANCOMYCIN HYDROCHLORIDE] | > 100 µg/mL
Cc1cccc(O)c1C1=CC2=CC(=O)[C@](C)(O)C(=O)C2=CO1 | > 50 µg/mL
